Molecular target: T1, BCMA (Homo sapiens (Human), UniProt Q02223 1-54, limits assumed)
T1 sequence: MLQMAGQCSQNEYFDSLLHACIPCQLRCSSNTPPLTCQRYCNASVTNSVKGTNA
Assay: ELISA, format not described
Parameters: unit not given here
measurement label: ELISA_avg
Reply: number alone, nothing else.

The value of ELISA_avg measured for the binder D-domain SEQ ID NO: 144 (designed binder) MGSWNEFYNRLHAINLRLWALGGSEAELAAFEKEIAAFESELQAYKGKGNPEVEVLREHAAIIRQALQAYRHN turned out to be 3

// recorded ELISA_avg for D-domain SEQ ID NO: 206 (designed binder) MGSWVEFWHRLGAIYDRLEALGGSEAELAAFEKEIAAFESELQAYKGKGNPEVEELRRTAALIRQTLQAYRHN : 19.9

Measured ELISA_avg of D-domain SEQ ID NO: 205 (designed binder) MGSWTEFWVRLNAIRDRLEALGGSEAELAAFEKEIAAFESELQAYKGKGNPEVEDLRHTAAIIRNYLQAYRHN : 12.5

D-domain SEQ ID NO: 247 (designed binder) MGSWSTFKYHLAVIKWYLEALGGSEAELASFEDYIAQFETDLQEYKGKGNPEVEALRKEAAAIRDELQAYRHN yielded ELISA_avg of 11.7

Note to self: ELISA_avg recorded for D-domain SEQ ID NO: 287 (designed binder) MGSWVNFKYKLAIIKYMLEALGGSEAELAFFEDWIAEFERTLQQYKGKGNPEVEALRKEAAAIRDELQAYRHN was 7.39
